Molecular target: Potassium-transporting ATPase (Rattus norvegicus) (UniProt P09626+P18598)
Assay: Inhibition of pentagastrin-stimulated gastric acid secretion in the anesthetized rat after iv administration
Type: functional, organism-based
Conditions: Stomach
What ED50 was measured for each of the following?
Kindly answer with a numeric value in µmol/kg, unit omitted.

Entry CCCC(=O)c1cnc2c(C)cccc2c1Nc1ccccc1CC , system Potassium-transporting ATPase (Rattus norvegicus) (UniProt P09626+P18598): what ED50 was measured?
3.05

Entry CCCC(=O)c1cnc2c(Oc3cnccn3)cccc2c1Nc1ccccc1C , system Potassium-transporting ATPase (Rattus norvegicus) (UniProt P09626+P18598): what ED50 was measured?
2.9

Entry CCCC(=O)c1cnc2c(OC)cccc2c1Nc1ccc(F)cc1C , system Potassium-transporting ATPase (Rattus norvegicus) (UniProt P09626+P18598): what ED50 was measured?
3.9

Entry CCCC(=O)c1cnc2c(CO)cccc2c1Nc1ccc(O)cc1C , system Potassium-transporting ATPase (Rattus norvegicus) (UniProt P09626+P18598): what ED50 was measured?
2.09

Entry CCCC(=O)c1cnc2c(OCCOCCO)cccc2c1Nc1ccccc1C , system Potassium-transporting ATPase (Rattus norvegicus) (UniProt P09626+P18598): what ED50 was measured?
1.89

Entry CCCC(=O)c1cnc2c(C(=O)OC)cccc2c1Nc1ccccc1C , system Potassium-transporting ATPase (Rattus norvegicus) (UniProt P09626+P18598): what ED50 was measured?
13.4

Entry CCCC(=O)c1cnc2c(CO)cccc2c1Nc1ccccc1C , system Potassium-transporting ATPase (Rattus norvegicus) (UniProt P09626+P18598): what ED50 was measured?
1.72

Entry CCCC(=O)c1cnc2c(OC)cccc2c1Nc1c(C)cccc1C , system Potassium-transporting ATPase (Rattus norvegicus) (UniProt P09626+P18598): what ED50 was measured?
5.24

Entry CCCC(=O)c1cnc2c(C(C)O)cccc2c1Nc1ccc(O)cc1C (stereo not given) , system Potassium-transporting ATPase (Rattus norvegicus) (UniProt P09626+P18598): what ED50 was measured?
2.74

Entry CCCC(=O)c1cnc2c(OC)cccc2c1Nc1ccccc1OC , system Potassium-transporting ATPase (Rattus norvegicus) (UniProt P09626+P18598): what ED50 was measured?
3.56

Entry CCCC(=O)c1cnc2c(C(C)O)cccc2c1Nc1ccccc1C (stereo not given) , system Potassium-transporting ATPase (Rattus norvegicus) (UniProt P09626+P18598): what ED50 was measured?
3.69

Entry Cc1cc(O)ccc1Nc1c(C(=O)C(C)C)cnc2c(CO)cccc12 , system Potassium-transporting ATPase (Rattus norvegicus) (UniProt P09626+P18598): what ED50 was measured?
1.72

Entry CCCC(=O)c1cnc2c(C)cccc2c1Nc1ccccc1OC , system Potassium-transporting ATPase (Rattus norvegicus) (UniProt P09626+P18598): what ED50 was measured?
3.98

Entry Cc1cc(F)ccc1Nc1c(C(=O)C(C)C)cnc2c(OCCO)cccc12 , system Potassium-transporting ATPase (Rattus norvegicus) (UniProt P09626+P18598): what ED50 was measured?
4.2

Entry CCCC(=O)c1cnc2c(OC)cccc2c1Nc1ccc(O)cc1C , system Potassium-transporting ATPase (Rattus norvegicus) (UniProt P09626+P18598): what ED50 was measured?
1.98

Entry CCCC(=O)c1cnc2c(OC)cccc2c1Nc1c(C)cc(C)cc1C , system Potassium-transporting ATPase (Rattus norvegicus) (UniProt P09626+P18598): what ED50 was measured?
10.8

Entry CCCC(=O)c1cnc2c(OCCOC)cccc2c1Nc1ccccc1C , system Potassium-transporting ATPase (Rattus norvegicus) (UniProt P09626+P18598): what ED50 was measured?
2.75

Entry CCCC(=O)c1cnc2c(OC)cccc2c1Nc1ccccc1CC , system Potassium-transporting ATPase (Rattus norvegicus) (UniProt P09626+P18598): what ED50 was measured?
2.35

Entry CCC(=O)c1cnc2c(OCCOC)cccc2c1Nc1ccccc1C , system Potassium-transporting ATPase (Rattus norvegicus) (UniProt P09626+P18598): what ED50 was measured?
1.92

Entry CCCC(=O)c1cnc2ccccc2c1Nc1ccccc1C , system Potassium-transporting ATPase (Rattus norvegicus) (UniProt P09626+P18598): what ED50 was measured?
5.45

Recorded values, source ChEMBL document CHEMBL1128471.
